Kindly state % Inhibition for each of the entries shown.
# Tested on: Plasmodium falciparum
# protocol: Primary screen in NF54 nanoGlo assay, in single point, at 2uM, 72h
# Assay type: functional, Erythrocyte
# testSettings: timepoint 72 hour
In all, about 150,000 compounds went through this assay and about 540 (0.36%) showed an effect of 50% or more. Shown is part of a subset that was picked to be rich in strong results.
Record the value in %, omitting the unit from your answer.

// assay Plasmodium falciparum, entry CCC[N+]1(CC#C[C@@](O)(c2ccccc2)C2(C)CCCC2)CCCCC1 , % Inhibition value = 51

// assay Plasmodium falciparum, entry C=C(C)C(=O)Nc1ccc(Cc2ccc(NC(=O)C(=C)C)c(O)c2)cc1O , % Inhibition value = 0

// assay Plasmodium falciparum, entry O=C(NCCc1nccs1)c1n[nH]c2c1CCc1ccccc1-2 , % Inhibition value = -9

// assay Plasmodium falciparum, entry Cc1nn(-c2ccc(Br)cc2)c(NC(=O)N(C)[C@@H](C)c2ccccc2F)c1C , % Inhibition value = 2

// assay Plasmodium falciparum, entry Cc1cc(C)c2nc(C)cc(Nc3ccc(O)cc3)c2c1 , % Inhibition value = 85

// assay Plasmodium falciparum, entry CN1CCN(S(=O)(=O)N[C@@H](CO)c2ccc(F)cc2)CC1 , % Inhibition value = -12

// assay Plasmodium falciparum, entry O=C(Nc1ccc(Cc2ccc(NC(=O)c3ccc(Br)cc3)c(O)c2)cc1O)c1ccc(Br)cc1 , % Inhibition value = 60

// assay Plasmodium falciparum, entry Cc1cc(Nc2ccc(C)c(Cl)c2)c2cccc(C)c2n1 , % Inhibition value = 23

// assay Plasmodium falciparum, entry CCOC1CC(NCc2c[nH]nc2-c2cccnc2)C12CCC2 (stereo not given) , % Inhibition value = -10

// assay Plasmodium falciparum, entry CCC1([C@@](O)(C#CCN2CCCCCC2)c2ccccc2)CCCC1 , % Inhibition value = -16

// assay Plasmodium falciparum, entry CCC(C)(CC)[C@@](O)(C#CC[N+]1(Cc2ccccc2)CCCCC1)c1ccccc1 , % Inhibition value = 38

// assay Plasmodium falciparum, entry COc1cccc2c(Nc3ccc(C(=O)O)cc3)cc(C)nc12 , % Inhibition value = -3

// assay Plasmodium falciparum, entry O=C(c1n[nH]c2c1CCc1ccccc1-2)N1CCCCCC1 , % Inhibition value = -15

// assay Plasmodium falciparum, entry NC1CCOC(C2CCCCN2S(=O)(=O)c2ccc(C(F)(F)F)s2)C1 (stereo not given) , % Inhibition value = 4

// assay Plasmodium falciparum, entry CC1([C@@](O)(C#CC[N+]2(C)CCCCC2)c2ccccc2)CCCC1 , % Inhibition value = 60

// assay Plasmodium falciparum, entry Cc1nc(N2C(=O)N(C)C3(CCCC3)C2=O)oc1C , % Inhibition value = 3

// assay Plasmodium falciparum, entry CCOC1CC(NC(C)C(=O)N(C)Cc2cccc(F)c2)C12CCCC2 (stereo not given) , % Inhibition value = 4

// assay Plasmodium falciparum, entry Cc1cc(N2C[C@H]3CC[C@@H](C2)[C@H]3N(C)C)nc(Nc2cccc(O)c2)n1 , % Inhibition value = 77

// assay Plasmodium falciparum, entry CCO[C@H]1CN(C)C[C@@H]1Nc1cc(C)nc(Nc2cccc(O)c2)n1 , % Inhibition value = -6

// assay Plasmodium falciparum, entry Cc1ccc(-c2ccc(C(=O)Nc3cccnc3)o2)cc1Cl , % Inhibition value = -2

// assay Plasmodium falciparum, entry CNC(=O)[C@H](CNC(=O)c1ccc(=O)[nH]n1)Cc1ccc(F)cc1C , % Inhibition value = -8

// assay Plasmodium falciparum, entry CC(C)Cn1cccc(C(=O)Nc2cn(C)nc2-c2ccco2)c1=O , % Inhibition value = -9

// assay Plasmodium falciparum, entry CCOC(=O)c1c(CN2CCCC2)n(C)c2cc(-c3cccnc3)c(O)c(Cn3ccnc3)c12 , % Inhibition value = 58

// assay Plasmodium falciparum, entry Cc1cc(N2CC(OCc3ccccc3)C2)nc(Nc2cccc(O)c2)n1 , % Inhibition value = 91

// assay Plasmodium falciparum, entry O=C(OCC(F)(F)F)N1CCOCC1 , % Inhibition value = 1

// assay Plasmodium falciparum, entry CN(C(=O)OC(C)(C)C)[C@H]1CCCN(C(=O)c2ccn(C)c(=O)c2)C1 , % Inhibition value = 3

// assay Plasmodium falciparum, entry CNC(=O)[C@@H]1CCCN1C(=O)CNC(=O)c1cccc2c1OCC2 , % Inhibition value = -5

// assay Plasmodium falciparum, entry Cc1ccn(C2CCN(C(=O)C(C)(C)c3c[nH]cn3)CC2)n1 , % Inhibition value = -6

// assay Plasmodium falciparum, entry Cc1cc(N2CCOC[C@@H](O)C2)nc(Nc2cccc(O)c2)n1 , % Inhibition value = -4

// assay Plasmodium falciparum, entry CC[C@H](C)NC(=O)COc1ccc(Cl)cc1C(N)=O , % Inhibition value = -8

// assay Plasmodium falciparum, entry CC1(C(=O)Nc2n[nH]c3cc(F)ccc23)CC2CCC1O2 (stereo not given) , % Inhibition value = -7

// assay Plasmodium falciparum, entry O=C(NCCN1CCCCC1)c1n[nH]c2c1CCc1ccccc1-2 , % Inhibition value = 52

// assay Plasmodium falciparum, entry Cc1cc(C)cc(OC[C@@H](O)CNC(C)(C)CC(C)(C)C)c1 , % Inhibition value = -3

// assay Plasmodium falciparum, entry O=C(Nc1cccnc1)c1ccc(-c2ccc(Cl)c(Cl)c2)o1 , % Inhibition value = 64

// assay Plasmodium falciparum, entry O=C(COc1ccc(Br)cc1)Nc1ccc2c(c1)OCCCO2 , % Inhibition value = -9

// assay Plasmodium falciparum, entry CN(C)[C@H]1CCN(CC(=O)NC2(c3cc(F)ccc3F)CC2)C1 , % Inhibition value = 8

// assay Plasmodium falciparum, entry CCOC1CC(NC2CC(c3ccc(F)cc3)C2)C12CCC2 (stereo not given) , % Inhibition value = 85

// assay Plasmodium falciparum, entry CCC[N+]1(CC#CC2(O)CCCCC2)CCOCC1 , % Inhibition value = -9

// assay Plasmodium falciparum, entry Cc1cc(OC[C@@H](O)CNC(C)C)cc(C)c1Cl , % Inhibition value = -7

// assay Plasmodium falciparum, entry CCOC(=O)c1cnc(N2CCN(Cc3cccnc3)CC2)s1 , % Inhibition value = -2

// assay Plasmodium falciparum, entry CCc1nsc(N2CC(C)N(CC#N)C(C)C2)n1 (stereo not given) , % Inhibition value = -3

// assay Plasmodium falciparum, entry CCOc1ccc2nc(CN(C)[C@@H]3CCCC[C@@H]3O)ccc2c1 , % Inhibition value = -18

// assay Plasmodium falciparum, entry O=C(Nc1ccc(Br)cn1)c1ccc(-c2ccc(Cl)c(Cl)c2)o1 , % Inhibition value = 31

// assay Plasmodium falciparum, entry CCOC(=O)c1c(-c2ccccc2)n(C)c2cc(-c3cccnc3)c(O)cc12 , % Inhibition value = 9

// assay Plasmodium falciparum, entry CCC1([C@@](O)(C#CCN(Cc2ccccc2)C(C)(C)C)c2ccccc2)CCCC1 , % Inhibition value = 33
